The reported measurements were obtained from ChEMBL document CHEMBL3351507.

The compounds listed here are annotated with their GI50.
System: U-251
Test: Cytotoxicity against human U251 cells assessed as growth inhibition after 72 hrs by MTT assay
Assay type: functional
Conditions: U-251, 72 h
reported.endpoint: GI50 (µM)

[[record]]
smiles = "COc1ccc2c(c1)nnn1c3ncccc3c(N=O)c21"
quantitative_result = 0.72

[[record]]
smiles = "COc1cc2nnn3c4ncccc4c(N=O)c3c2cc1OC"
quantitative_result = 0.6

[[record]]
smiles = "COc1ccc2c(c1)nnc1c3cccnc3[nH]c21"
quantitative_result = 0.93

[[record]]
smiles = "COc1cc2nnc3c4cccnc4[nH]c3c2cc1OC"
quantitative_result = 0.92

[[record]]
smiles = "O=Nc1c2cccnc2n2nnc3ccc(Cl)cc3c12"
quantitative_result = 1.27


---

The molecules listed here are annotated with their GI50.
System: MDA-MB-435
Test: Cytotoxicity against human MDA-MB-435 cells assessed as growth inhibition after 72 hrs by MTT assay
Format: functional
Settings: MDA-MB-435, 72 h
reported.endpoint: GI50 (nM)

[[record]]
smiles = "O=Nc1c2cccnc2n2nnc3ccc(Cl)cc3c12"
result_units = "nM"
quantitative_result = 1260

[[record]]
smiles = "COc1ccc2c(c1)nnc1c3cccnc3[nH]c21"
result_units = "nM"
quantitative_result = 1440

[[record]]
smiles = "COc1cc2nnn3c4ncccc4c(N=O)c3c2cc1OC"
result_units = "nM"
quantitative_result = 2380

[[record]]
smiles = "COc1ccc2c(c1)nnn1c3ncccc3c(N=O)c21"
result_units = "nM"
quantitative_result = 1940

[[record]]
smiles = "COc1cc2nnc3c4cccnc4[nH]c3c2cc1OC"
result_units = "nM"
quantitative_result = 2230

